Data provenance: patent US20230349919A1

target: T1, human IL-4Rα (hIL-4Rα) monomeric protein (human, UniProt P24394 26-232, limits assumed); experiment: Biacore (SPR); negative log10 of Kd
T1 construct: also called hIL-4Rα antigen; barcoded hIL-4Rα
REPORTED ENDPOINT: negLog10Kd
Kindly provide the number alone.

Table 1 Line # 19 antibody (BM_Plasma_cell) (antibody, human IgG4, V domains shown, Cloned with human IgG4/human Igk constants for Kd; barcode counts are of the source cell's own IgG) VH: EVQLVESGGGLVQPGRSLRLSCAASGFTFDDFAMHWVRQEPGKGLEWVSGISWNGGNIGYADSVKGRFTISRDNAKNSLYLQMNSLRAEDTAFYYCAKDVSSAWYGYFDYWGQGTLVTVSS VL: DIQMTQSPSTLSASVGDRVTITCRASQSVSSWLAWYQQKPGKAPKLLIYKASSLESGVPLRFSGSGSGTEFTLTISSLQPDDFATYYCQVYNSDSRTFGQGTKVEIK | 7.92
Table 1 Line # 24 antibody (SP_B_cell) (antibody, human IgG4, V domains shown, Cloned with human IgG4/human Igk constants for Kd; barcode counts are of the source cell's own IgG) VH: EVQLVESGGDLVQPGTSLRLSCAASGFTFDDYAMHWVRQTPGQGLEWVSGINWNSGTIGYADSVKGRFTISRDNAKNSLFLQMNSLRAEDSAFYYCTKDIGGSYYASDFWGQGTLVTVSS VL: DIQMTQSPSSLSASVGDRVTITCRASQRISTDLNWYQQKSGKAPNLLIYGASSLQSGVPSRFSGSGSGTDFILTISTLQPEDFATYYCQQSYSTPFTFGPGTKVDIK | 6.68

# context switch: different binder, same negLog10Kd
Prompt: Fill in the blank: the reported negLog10Kd of Table 1 Line # 34 antibody (SP_B_cell) (antibody, human IgG4, V domains shown, Cloned with human IgG4/human Igk constants for Kd; barcode counts are of the source cell's own IgG) VH: EVQLVASGGDLVQPGRSLRLSCAASGFTFDDFGMHWVRQAPGKGLEWVSGISWNGGHMGYAASVKGRFTMSRDNAKNSLYLQMNSLRVEDTALYYCVKEFSSSWYGFFDLWGRGTLVTVSS VL: DIQMTQSPSSLSASVGDRVTITCRASQGLGNSVAWYQQKPGQIPRLLISAAASLQSGVPSRFSGSGSGTDFTLTISSLQPEDVATYYCQNYNSAPRTFGQGTNVEIK is ____.
Response: 7.47
